The reported measurements were obtained from PubChem BioAssay (NCI).

System: NCI-H460 lung
methodDescription: NCI tumour cell line growth inhibition, 48 h
Where a SMILES comes first, the peptide text is derived from it. Bridges are numbered along the chain shown (N, C = ends). [ ]: non-standard residue; d: D form. The star is where a group is joined. ξ: configuration not given here. X26 = O=C(/C=C/C=C/C=C/C=C/C=C/C(=O)*)NC1=C(O)CCC1=O; Pro(4R-Me) = C[C@H]1CN[C@H](C(=O)O)C1; NMeA = CN[C@@H](C)C(=O)O; ξF = NC(Cc1ccccc1)C(=O)O; ξA = CC(N)C(=O)O
readoutName: TGI

- molecule: "COC(=O)C(Cc1c[nH]c2ccccc12)NP(=O)(O)OCC1OC(n2ccc(N)nc2=O)C(O)C1O (stereo not given)"
  readoutName: "TGI"
  readoutValue: "> 100 µM"
- molecule: "CCCCCCCCCCc1c2nc(c(CCCCCCCCCC)c3ccc([nH]3)c(CCCCCCCCCC)c3ccc([nH]3)c(CCCCCCCCCC)c3nc1C=C3)C=C2"
  readoutName: "TGI"
  readoutValue: "> 100 µM"
- molecule: "NS(=O)(=O)c1ccc(NC(=S)/N=C/c2c(O)c3ccccc3oc2=O)cc1"
  readoutName: "TGI"
  readoutValue: "> 100 µM"
- molecule: "C1C[OH+]CC[OH+]CC[OH+]CC[OH+]CC[OH+]CC[OH+]1.[Cl-].[V]"
  readoutName: "TGI"
  readoutValue: "> 100 µM"
- molecule: "NC(N)=NCCC[C@H]1NC(=O)[C@@H](CCC(=O)O)NC(=O)[C@@H](CC(=O)O)NC(=O)[C@@H](CCC(=O)O)NC(=O)[C@H](Cc2c[nH]c3ccccc23)NC1=O (cyclo(W[dE][dD][dE][dR]))"
  readoutName: "TGI"
  readoutValue: "> 7.5 µM"
- molecule: "CN=c1ssc(/N=C(\\SC)N(C)C)[n+]1C"
  readoutName: "TGI"
  readoutValue: "> 100 µM"
- molecule: "OCCCC(O)(c1ccccc1)c1ccccc1"
  readoutName: "TGI"
  readoutValue: "> 100 µM"
- molecule: "Cn1c(=O)c2c(nc3n(Cc4ccccc4)c(=O)c(Br)cn23)n(C)c1=O"
  readoutName: "TGI"
  readoutValue: "> 100 µM"
- molecule: "CCCCCC(=O)Nc1n[nH]nc1C#N"
  readoutName: "TGI"
  readoutValue: "> 100 µM"
- molecule: "c1csc(-c2cc(-c3ccsc3)c(-c3ccsc3)s2)c1"
  readoutName: "TGI"
  readoutValue: "> 100 µM"
- molecule: "COC(c1ccccc1)C(c1ccccc1)N1CCOCC1 (stereo not given)"
  readoutName: "TGI"
  readoutValue: "> 100 µM"
- molecule: "C[C@H](C(=O)C12CC3CC(CC(C3)C1)C2)[C@H](O)c1ccccc1"
  readoutName: "TGI"
  readoutValue: "> 100 µM"
- molecule: "O=C1Nc2ccccc2/C1=C\\c1c(-c2ccccc2)nc2ccccn12"
  readoutName: "TGI"
  readoutValue: "12.9 µM"
- molecule: "O=c1cc(-c2ccccc2)nc(-n2[nH]c3c(c2=O)CCCC3)[nH]1"
  readoutName: "TGI"
  readoutValue: "> 100 µM"
- molecule: "COC(=O)[C@]12CC[C@H]3CN(C(=O)OCc4ccccc4)[C@H]([C@H]31)[C@H](c1ccccc1)N2"
  readoutName: "TGI"
  readoutValue: "> 100 µM"
- molecule: "COC(=O)C1C(OS(=O)(=O)O)CCC2CN3CCc4c([nH]c5ccccc45)C3CC21 (stereo not given)"
  readoutName: "TGI"
  readoutValue: "> 100 µM"
- molecule: "COc1ccc2[nH]c3c(C)c4ccncc4c(C)c3c2c1"
  readoutName: "TGI"
  readoutValue: "0.892 µM"
- molecule: "O=c1cc(-c2ccc3ccccc3c2)[nH]c2ncc(Cl)cc12"
  readoutName: "TGI"
  readoutValue: "> 100 µM"
- molecule: "COc1cc2c(c(OC)c1OC)-c1ccc(SC)c(=O)cc1[C@@H](NCc1ccccc1[N+](=O)[O-])CC2"
  readoutName: "TGI"
  readoutValue: "0.0826 µM"
- molecule: "CC1CC[C@@]23CCC4(C)[C@@](C=CC5[C@@]6(C)CCC(=O)C(C)(C)C6CC[C@]54C)(OC2=O)[C@@H]3[C@H]1C (stereo not given in full)"
  readoutName: "TGI"
  readoutValue: "58 µM"
- molecule: "CC1NC(=O)[C@H](C)N(C)C(=O)[C@@H]2CCCN2C(=O)[C@@H](NC(=O)C(Cc2ccccc2)NC(=O)/C=C/C=C/C=C/C=C/C=C/C(=O)NC2=C(O)CCC2=O)COC(=O)[C@@H]2C[C@@H](C)CN2C1=O (stereo partly drawn) (X26-[ξF]SP[NMeA][ξA][Pro(4R-Me)]; ester 2-C)"
  readoutName: "TGI"
  readoutValue: "> 100 µM"
- molecule: "Oc1c(Br)cc(Br)c2ccc(Cn3cc(-c4ccc(C(F)(F)F)cc4)nn3)nc12"
  readoutName: "TGI"
  readoutValue: "37.3 µM"
- molecule: "c1cc[n+](C2c3ccccc3C([n+]3ccccc3)c3ccccc32)cc1 (stereo not given)"
  readoutName: "TGI"
  readoutValue: "> 89.4 µM"
- molecule: "COc1ccccc1N1C(=O)CSC1c1c[nH]c2ccccc12 (stereo not given)"
  readoutName: "TGI"
  readoutValue: "> 100 µM"
- molecule: "O=C1C(=O)c2cc([N+](=O)[O-])ccc2-c2ccc([N+](=O)[O-])cc21"
  readoutName: "TGI"
  readoutValue: "2.65 µM"
- molecule: "O=C(C1OC1c1ccc(F)cc1)C12CC3CC(CC(C3)C1)C2 (stereo not given)"
  readoutName: "TGI"
  readoutValue: "31.1 µM"
- molecule: "COc1cc(C(=O)O)ccc1OS(=O)(=O)O"
  readoutName: "TGI"
  readoutValue: "> 100 µM"
- molecule: "CCNCCCNc1c2ccccc2nc2ccccc12"
  readoutName: "TGI"
  readoutValue: "0.585 µM"
- molecule: "O=C1C=CC(O)(C#CCO)C=C1"
  readoutName: "TGI"
  readoutValue: "48.8 µM"
- molecule: "CCCCCCCCCCCCc1ccsc1-c1ccc(-c2ccc(-c3sc(-c4cc(CCCCCCCCCCCC)c(-c5ccc(-c6ccc(-c7sccc7CCCCCCCCCCCC)s6)s5)s4)cc3CCCCCCCCCCCC)s2)s1"
  readoutName: "TGI"
  readoutValue: "> 100 µM"
